Reported z-score values follow for various compounds
experiment: S. pombe growth modifiers, basal conditions – strain 972, OD600, 24 h, no modulator, primary screen (AID 1090);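 also: basal condition with compound alone and no growth modifier present; test concentration not given here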; settings: S. pombe 972 growth, higher = more signal, called active from +8 up or from −8 down

[
  {
    "compound": "C=CCN1C(=O)[C@@]2(O[C@@H](CCO)[C@H]([Si](C)(C)c3ccc(OC)cc3)[C@H]2C)c2cc(NC(=O)[C@H](C)O)ccc21",
    "z-score": -1.64
  },
  {
    "compound": "O=C1O[C@H](c2ccccc2)[C@H](c2ccccc2)N2[C@H]1[C@@H](C(=O)NC[C@H](O)c1ccccc1)[C@]1(C(=O)Nc3ccccc31)[C@H]2c1ccccc1OCCO",
    "z-score": 0.468
  },
  {
    "compound": "CC(C)CNC(=O)[C@@]1(c2ccc([N+](=O)[O-])cc2)CC(=O)N(C(C)C)[C@@H]1c1ccc(CO)cc1",
    "z-score": -0.182
  },
  {
    "compound": "COCCCNC(=O)[C@@]1(C)c2ccccc2C(=O)N(c2ccc(C)cn2)[C@H]1c1ccc(CO)cc1",
    "z-score": -0.473
  },
  {
    "compound": "C[C@]12C(=O)N(CCCO)[C@@H]3C(=O)N(c4ccc(Cl)cc4)CC=CC31O[C@@H]1/C=C\\CCCOC(=O)C12 (stereo not given in full)",
    "z-score": -1.51
  },
  {
    "compound": "COC(=O)[C@@]1(Cc2ccccc2)[C@H]2c3cc(C(=O)N4CCCC4)n(Cc4ccccc4)c3C[C@H]2CN1C(=O)c1ccccc1",
    "z-score": 0.58
  },
  {
    "compound": "C[N+](C)(C)CCCC[C@@H]1NC(=O)[C@H]2C[C@@H](C(=O)NCCCCCCN)[C@@H](c3cccc(OCCO)c3)N2C1=O",
    "z-score": -0.87
  },
  {
    "compound": "CCCC[C@@H](O)C1=C(COc2ccccc2)Cn2c(=O)n(-c3ccccc3)c(=O)n2[C@H]1CO",
    "z-score": -1.82
  },
  {
    "compound": "CN1C(=O)C2C=CC(C(O)C3CCCCC3)N(N(c3ccccc3)c3ccccc3)C2C1=O (stereo not given)",
    "z-score": 1.25
  },
  {
    "compound": "C=C(COC)C(=O)CC[C@H](OC(=O)c1ccccc1-c1ccccc1C(=O)O)c1ccc(CO)o1",
    "z-score": 0.436
  },
  {
    "compound": "NC(=O)NCC#Cc1ccc2c(c1)[C@]1(C(=O)N2)[C@H](c2ccc(O)cc2)N2[C@H](c3ccccc3)[C@H](c3ccccc3)OC(=O)[C@H]2[C@@H]1C(N)=O",
    "z-score": 0.736
  },
  {
    "compound": "COc1ccc([Si](C)(C)[C@@H]2[C@@H](CC(=O)N(CCO)Cc3ccccc3)O[C@]3(C(=O)N(C)c4c(Br)cc(C)cc43)[C@H]2C)cc1",
    "z-score": 0.0424
  },
  {
    "compound": "C=C(C)[C@@H]1CC=C(C(O)C2C=CC3C(=O)N(C4CCCCC4)C(=O)C3N2Nc2ccc(OC)cc2)CC1 (stereo not given in full)",
    "z-score": 0.707
  },
  {
    "compound": "CCCCC(CC)C(O)C1C=CC2C(=O)NC(=O)C2N1Nc1ccccn1 (stereo not given)",
    "z-score": 0.764
  },
  {
    "compound": "COC(=O)c1c(CC[C@@H](CO)NC(=O)N[C@@H](C)Cn2cc(C3(O)CCCC3)nn2)oc(C(C)=O)c1C(=O)OC",
    "z-score": -1.03
  }
]

* * *

Listed here: items and their measured z-score.
assay: inhibition of PAO1 biofilm formation – strain PAO1, LB-PBS medium, absorbance 600 nm, primary screen (AID 1176); also: test concentration not given here; settings: P. aeruginosa PAO1 growth/biofilm, A600, 12 h; higher = more signal
readout.kind: z-score

[
  {
    "compound": "C=CCNC(=O)[C@H]1[C@@H]2C(=O)O[C@@H](c3ccccc3)[C@@H](c3ccccc3)N2[C@@H](c2ccc(OCCO)cc2)[C@]12C(=O)N(C(=O)OCCOC)c1ccc(C#CC3=CCCCC3)cc12",
    "result.value": 2.06
  },
  {
    "compound": "Cc1ccc(S[C@]2(C(=O)NCc3ccccc3)CC(=O)N(C3Cc4ccccc4C3)[C@@H]2c2ccc(CO)cc2I)cc1",
    "result.value": 0.761
  },
  {
    "compound": "CC(C)N1CC=CC23O[C@@H]4C=CCOC(=O)[C@@H]4[C@H]2C(=O)N(CCCCCCO)[C@@H]3C1=O (stereo partly specified)",
    "result.value": 0.165
  },
  {
    "compound": "O=C1N(CCS(=O)(=O)c2ccccc2)Cc2ccccc2C[C@@]12COC(c1ccc(OCCCO)cc1)=N2",
    "result.value": 0.0379
  },
  {
    "compound": "COC(=O)[C@@]1(Cc2ccccc2N=[N+]=[N-])N=C(c2ccc(OCCCO)cc2)O[C@H]1c1ccccc1",
    "result.value": 0.77
  },
  {
    "compound": "CCN(CC)c1ccc(N2CC=CC34O[C@@H]5/C=C\\CCCOC(=O)C5[C@H]3C(=O)N(CCCCCO)[C@@H]4C2=O)cc1 (stereo partly specified)",
    "result.value": -0.553
  },
  {
    "compound": "COCCCNC(=O)[C@]1(CCS(=O)(=O)c2ccccc2)N=C(c2ccc(OCCCO)cc2)O[C@@H]1c1ccccc1",
    "result.value": -0.0304
  },
  {
    "compound": "CCC[C@@H]1C[C@@]1(CCC)[C@@H](NC(=O)c1cccs1)c1ccc(Cl)cc1",
    "result.value": 0.852
  },
  {
    "compound": "CCCN1C(=O)[C@@H]2Cc3c([nH]c4ccccc34)[C@@H](c3cccc(O)c3)N2C1=O",
    "result.value": 0.764
  },
  {
    "compound": "OCCCC1=CC(c2cccs2)N(Cc2cccc(OC(F)(F)F)c2)CC1 (stereo unspecified)",
    "result.value": -0.341
  },
  {
    "compound": "C[N+](C)(C)CCCC[C@@H]1NC(=O)[C@@H]2C[C@H](C(=O)NCCCCCNC(=O)CS)[C@H](c3cccc(OCCO)c3)N2C1=O",
    "result.value": -0.199
  },
  {
    "compound": "C=CC[C@@]1(C(=O)NCC(O)CO)N=C(c2ccc(OCCCO)cc2)O[C@@H]1c1ccccc1 (stereo partly specified)",
    "result.value": -0.223
  },
  {
    "compound": "CC(C)NC(=O)[C@@]1(Cc2ccccc2I)c2ccccc2C(=O)N(Cc2ccccc2C(F)(F)F)[C@H]1c1ccc(CO)cc1",
    "result.value": 0.82
  },
  {
    "compound": "CN1C(=O)C2C=CC(C(O)COCc3ccccc3)N(Nc3ccccc3)C2C1=O (stereo unspecified)",
    "result.value": -0.0346
  },
  {
    "compound": "COCCCNC(=O)[C@]1(Cc2ccccc2)N=C(c2ccc(OCCCO)cc2)O[C@@H]1c1ccccc1N=[N+]=[N-]",
    "result.value": -0.674
  },
  {
    "compound": "O=C1c2ccccc2[C@](Cc2ccccc2I)(C(=O)NC2CC2)[C@H](c2ccc(CO)cc2)N1Cc1ccccc1Cl",
    "result.value": 0.925
  }
]

* * *

test: JC-1 mitochondrial signal, unstimulated adipocytes – cell-based, JC-1 fluorescence, 3T3-L1 adipocytes, 24 h, 100 nL compound, profiling panel (AID 1168); conditions: JC-1 mitochondrial fluorescence, higher = more signal, called active from +8 up or from −8 down; also: test concentration not given here
readout.kind: z-score

[
  {
    "compound": "COc1ccc([Si](C)(C)[C@@H]2[C@@H](CCO)O[C@]3(C(=O)N(Cc4ccccc4)c4ccc(N5C(=O)COc6ccccc65)cc43)[C@H]2C)cc1",
    "result.value": 0.222
  },
  {
    "compound": "COC(=O)[C@@]1(Cc2ccc(OC)cc2)[C@H]2c3cc(C(=O)N4CCCC4)n(CCc4ccc(O)c(OC)c4)c3C[C@H]2CN1C(=O)c1ccccc1",
    "result.value": -0.867
  },
  {
    "compound": "COc1ccc(C(=O)Nc2ccc3c(c2)[C@]2(O[C@@H](CCO)[C@H]([Si](C)(C)c4ccc(OC)cc4)[C@H]2C)C(=O)N3Cc2ccccc2)cc1",
    "result.value": -0.0069
  },
  {
    "compound": "COC(=O)[C@@]1(Cc2ccc(OC)cc2)[C@H]2c3cc(C(=O)N4CCCC4)n(Cc4ccc(C)o4)c3C[C@H]2CN1C(=O)c1ccccc1",
    "result.value": 3.65
  },
  {
    "compound": "C=CCC(OC(C)=O)[C@@H]1[C@@H](N(Cc2ccc(-c3cccc(C(F)(F)F)c3)o2)C(=O)c2cccc3ccccc23)c2cc(OCCCO)ccc2N1C(=O)c1ccc(-c2ccccc2)cc1 (some centres not stated)",
    "result.value": -2.44
  },
  {
    "compound": "CCC[C@@H]1C[C@@]1(CCC)[C@@H](NC(=O)c1ccco1)c1ccc(Cl)cc1",
    "result.value": -0.00207
  },
  {
    "compound": "COCCCNC(=O)[C@]1(Cc2ccccc2)N=C(c2ccc(OCCCO)cc2)O[C@@H]1c1ccccc1N=[N+]=[N-]",
    "result.value": 0.235
  }
]
